- system tested: CDK9/Cyclin T1 (Homo sapiens, UniProt P50750)
- measurement description: CDK9 enzyme protocol (LANCE ULight TR-FRET kinase assay)
- stated conditions: 4 nM CDK9/Cyclin T1, 1000 μM ATP, 100 nM U-light MBP peptide, 30 minutes
# label 1 = IC50 below 1 µM (exclusive); label 0 = IC50 at/above 1 µM

• COc1ccc(F)cc1-c1ncnc2[nH]c(C3=CCN(S(=O)(=O)C(F)(F)F)CC3)cc12 [Example 40] = label 1

[Q] Answer whether the compound CC(C)Oc1ccc(F)c(-c2ncnc3[nH]c(C4=CCN(S(C)(=O)=O)CC4)cc23)c1 [Example 52] has IC50 strictly less than 1 µM
[A] label 0

[Q] Consider next the compound CS(=O)(=O)N1CC=C(c2cc3c(-c4cccc(OC(F)(F)F)c4)ncnc3[nH]2)CC1 [Example 56] in the same way.
[A] label 0

[Q] Consider next the compound COc1ccc(Cl)cc1-c1ncnc2[nH]c(C3=CCN(S(C)(=O)=O)CC3)cc12 [Example 45] in the same way.
[A] label 1

[Q] Consider next the compound COc1ccc(F)cc1-c1ncnc2[nH]c(C3=CCC(C(=O)O)CC3)cc12 (stereo not drawn) [Example 79] in the same way.
[A] label 1

[Q] Consider next the compound CS(=O)(=O)N1CC=C(c2cc3c(-c4cc(NCc5ccc(C#N)cc5)ccc4F)ncnc3[nH]2)CC1 [Example 30] in the same way.
[A] label 1

----------
- system tested: CDK9/Cyclin T1 (Homo sapiens)
- measurement description: CDK9 enzyme protocol (LANCE ULight TR-FRET kinase assay)
- stated conditions: 4 nM CDK9/Cyclin T1, 1000 μM ATP, 100 nM U-light MBP peptide, 30 minutes
# criterion met = IC50 below 1000 nM (exclusive); criterion not met = IC50 at/above 1000 nM

Worked examples follow.
• COc1ccc(F)cc1-c1ncnc2[nH]c(C3=CCN(C(=O)CO)CC3)cc12 = criterion met
• COc1ccc(F)cc1-c1ncnc2[nH]c(C3=CCN(C(=O)[C@H]4CC[C@H](C(=O)OC)CC4)CC3)cc12 = criterion met
• CS(=O)(=O)N1CC=C(c2cc3c(N4CC(F)(F)C4)ncnc3[nH]2)CC1 = criterion not met
• COc1ccc(F)cc1-c1ncnc2[nH]c(C3=CCN(C(=O)C4CC(=O)N4)CC3)cc12 (stereo not drawn) = criterion met
• COc1ccc(F)cc1-c1ncnc2[nH]c(C3CCNCC3)cc12 = criterion met

[Q] Answer whether the compound COc1ccc(F)cc1-c1ncnc2[nH]c(C3CCN(C)CC3)cc12 has IC50 strictly less than 1000 nM
[A] criterion met

[Q] Consider next the compound COc1ccc(F)cc1-c1ncnc2[nH]c(C3=CCN(Cc4ccc(NS(C)(=O)=O)cc4)CC3)cc12 in the same way.
[A] criterion met

[Q] Consider next the compound CS(=O)(=O)N1CC=C(c2cc3c(N4CCCC4)ncnc3[nH]2)CC1 in the same way.
[A] criterion not met

[Q] Consider next the compound COc1ccc(F)cc1-c1ncnc2[nH]c(C3=CCN(CC4CCNCC4)CC3)cc12 in the same way.
[A] criterion met

----------
Recorded IC50 for the following compounds
- system tested: T1, CDK9/Cyclin T1 (Homo sapiens, UniProt P50750)
- T1 construct: purchased Carna Biosciences 04-110
- T1 sequence (P50750 whole entry): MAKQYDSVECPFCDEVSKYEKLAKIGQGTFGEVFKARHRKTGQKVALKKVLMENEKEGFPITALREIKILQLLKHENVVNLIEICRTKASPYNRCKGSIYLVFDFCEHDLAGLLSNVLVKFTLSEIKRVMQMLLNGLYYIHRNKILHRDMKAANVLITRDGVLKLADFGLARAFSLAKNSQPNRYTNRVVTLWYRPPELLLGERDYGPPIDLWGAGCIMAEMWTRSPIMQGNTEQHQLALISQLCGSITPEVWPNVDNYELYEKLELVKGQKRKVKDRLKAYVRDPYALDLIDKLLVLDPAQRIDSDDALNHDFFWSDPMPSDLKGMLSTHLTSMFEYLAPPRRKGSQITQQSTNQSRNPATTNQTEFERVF
- T1 sequence (O60563 whole entry partner): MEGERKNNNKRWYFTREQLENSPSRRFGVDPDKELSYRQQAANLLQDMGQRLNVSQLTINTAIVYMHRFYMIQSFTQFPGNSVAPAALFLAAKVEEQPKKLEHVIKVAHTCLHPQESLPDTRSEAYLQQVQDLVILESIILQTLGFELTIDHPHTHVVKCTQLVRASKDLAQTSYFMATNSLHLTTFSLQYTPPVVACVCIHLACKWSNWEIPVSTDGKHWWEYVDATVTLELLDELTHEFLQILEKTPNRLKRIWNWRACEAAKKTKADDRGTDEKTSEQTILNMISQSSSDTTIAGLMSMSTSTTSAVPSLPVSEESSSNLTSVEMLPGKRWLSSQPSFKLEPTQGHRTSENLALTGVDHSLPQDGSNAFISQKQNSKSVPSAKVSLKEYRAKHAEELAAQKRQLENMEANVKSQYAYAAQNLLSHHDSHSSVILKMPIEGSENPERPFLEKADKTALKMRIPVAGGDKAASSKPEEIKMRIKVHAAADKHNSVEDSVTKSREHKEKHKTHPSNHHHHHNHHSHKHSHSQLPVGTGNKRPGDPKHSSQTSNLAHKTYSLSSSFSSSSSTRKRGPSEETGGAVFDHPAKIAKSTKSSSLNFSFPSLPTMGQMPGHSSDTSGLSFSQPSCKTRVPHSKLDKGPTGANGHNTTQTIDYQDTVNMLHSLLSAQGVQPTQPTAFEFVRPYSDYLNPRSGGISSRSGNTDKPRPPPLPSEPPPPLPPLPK
- measurement description: CDK9 enzyme protocol (LANCE ULight TR-FRET kinase assay)
- Type: biochemical
- stated conditions: 4 nM CDK9/Cyclin T1, 1000 μM ATP, 100 nM U-light MBP peptide, 30 minutes
Respond with the bare value in nM.

Here's what some known entries look like.
• Cc1ccc(F)c(-c2ncnc3[nH]c(C4=CCN(S(C)(=O)=O)CC4)cc23)c1 = 1000
• CCCCOc1ccc(F)c(-c2ncnc3[nH]c(C4=CCN(S(C)(=O)=O)CC4)cc23)c1 = 4100

[Q] Fill in the blank: the reported IC50 of CS(=O)(=O)N1CC=C(c2cc3c(-c4ccc(F)cc4F)ncnc3[nH]2)CC1 is ____.
[A] 830

[Q] Consider next the compound CCCCOc1ccc(F)cc1-c1ncnc2[nH]c(C3=CCN(S(C)(=O)=O)CC3)cc12 in the same way.
[A] 1200
